Please provide measured IC50 for the entries that follow.
- TARGET_UNDER_TEST: recombinant human DHODH (Homo sapiens)
- Construct: provided by Prof; M. Löffler, Marburg, Germany (gift, not a commercial vendor)
- Sequence (Q02127 whole entry): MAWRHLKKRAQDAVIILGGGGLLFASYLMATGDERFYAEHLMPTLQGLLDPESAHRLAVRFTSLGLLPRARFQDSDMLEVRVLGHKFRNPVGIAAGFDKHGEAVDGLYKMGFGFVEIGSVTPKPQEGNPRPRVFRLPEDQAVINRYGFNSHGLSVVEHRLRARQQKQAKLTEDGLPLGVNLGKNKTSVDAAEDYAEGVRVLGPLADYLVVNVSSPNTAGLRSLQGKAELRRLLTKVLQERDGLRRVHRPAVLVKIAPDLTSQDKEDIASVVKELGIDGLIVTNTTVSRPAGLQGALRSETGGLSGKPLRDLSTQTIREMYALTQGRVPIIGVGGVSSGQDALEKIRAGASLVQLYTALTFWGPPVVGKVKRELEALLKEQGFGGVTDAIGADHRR
- PROTOCOL_DETAILS: Inhibition assay of DHODH activity, human enzyme
- Assay type: biochemical
- CONDITION_INFO: class symbol (head prints μM, key in nM)

Known results for molecules:
{"SMILES_RECORD": "COc1ccc(-c2cc(F)c(NC(=O)C3=C(C(=O)O)CCC3)c(F)c2)c(OC)c1", "TARGET_UNDER_TEST": "recombinant human DHODH (Homo sapiens)", "RESULT": "< 0.8 µM"}
{"SMILES_RECORD": "COc1ccccc1-c1ccc(NC(=O)C2=C(C(=O)O)CCC2)cc1Cl", "TARGET_UNDER_TEST": "recombinant human DHODH (Homo sapiens)", "RESULT": "< 0.8 µM"}
{"SMILES_RECORD": "O=C(O)C1=C(C(=O)Nc2c(F)cc(-c3ccccc3Cl)cc2F)CCC1", "TARGET_UNDER_TEST": "recombinant human DHODH (Homo sapiens)", "RESULT": "< 0.8 µM"}
{"SMILES_RECORD": "CCOc1ccccc1-c1cc(F)c(NC(=O)C2=C(C(=O)O)CCC2)c(F)c1", "TARGET_UNDER_TEST": "recombinant human DHODH (Homo sapiens)", "RESULT": "< 0.8 µM"}

Let us examine a further case.
Query: IC50; subject: O=C(O)C1=C(C(=O)Nc2ccc(OCc3ccccc3F)c(Cl)c2)CCC1
< 0.8 µM

Cited source: patent US8653138B2
